testedTarget: adenosine A2B receptor (Homo sapiens (Human), UniProt P29275)
Sequence (P29275 whole entry): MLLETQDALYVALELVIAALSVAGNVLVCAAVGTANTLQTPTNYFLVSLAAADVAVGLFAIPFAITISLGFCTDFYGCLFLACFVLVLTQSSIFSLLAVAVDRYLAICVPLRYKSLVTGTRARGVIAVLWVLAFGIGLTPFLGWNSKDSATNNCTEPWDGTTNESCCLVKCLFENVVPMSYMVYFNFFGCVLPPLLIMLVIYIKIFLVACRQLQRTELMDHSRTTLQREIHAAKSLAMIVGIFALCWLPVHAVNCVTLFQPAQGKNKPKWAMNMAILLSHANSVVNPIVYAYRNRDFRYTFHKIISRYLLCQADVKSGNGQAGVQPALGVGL
assayMethodText: Adenosine receptor activity assay (Table 1), A2B activity
Format: biochemical
experimentalContext: read-out: Ave A2B cAMP IC50
pIC50: −log10 of the molar value.
As shown below, each of these compounds has a reported pIC50 value.

Query: pIC50; subject: COC1CN(C(=O)c2nc(N[C@@H](C)c3ccccn3)nc3cc(C)sc23)C1 [Example Z300]
> 8.00

###

testedTarget: UniProt:P29275
assayMethodText: Adenosine receptor activity assay (Table 1), A2B activity
Type: biochemical
experimentalContext: read-out: Ave A2B cAMP IC50
measuredAttribute: IC50

Example entries begin here.
>  <structureString>
O=C(NCc1cccnn1)c1nc(NCc2cccnn2)nc2ccsc12

>  <IC50>
> 500 nM

$$$$
>  <structureString>
Cc1cncc(CNc2nc(C(=O)N3CCC3)c3sccc3n2)c1

>  <IC50>
10 to 50 nM

$$$$
>  <structureString>
C[C@H](Nc1nc(C(=O)N2CCNC2)c2sccc2n1)c1cccnc1

>  <IC50>
> 500 nM

$$$$
>  <structureString>
C[C@H](Nc1nc(C(=O)N2CC[C@@H](O)C2)c2sc(N)cc2n1)c1cccnc1

>  <IC50>
100 to 500 nM

$$$$
>  <structureString>
COc1ccc(CCNC(=O)c2nc(N[C@@H](C)c3cncc(F)c3)nc3ccsc23)cc1

>  <IC50>
50 to 100 nM

$$$$
>  <structureString>
Cc1cc2nc(N[C@@H](C)c3cccnc3)nc(C(=O)NCC3CCNCC3)c2s1

>  <IC50>
100 to 500 nM

$$$$

Which IC50 value is on record for "CNc1cc2nc(N[C@@H](C)c3ccccn3)nc(C(=O)N3CCC3)c2s1" ?
< 10 nM

Entry "CO[C@@H]1CCN(C(=O)c2nc(N[C@@H](C)c3cccnc3)nc3cc(C)sc23)C1" has what IC50?
< 10 nM

###

testedTarget: adenosine A1 receptor (Homo sapiens (Human), UniProt P30542)
Sequence (P30542 whole entry): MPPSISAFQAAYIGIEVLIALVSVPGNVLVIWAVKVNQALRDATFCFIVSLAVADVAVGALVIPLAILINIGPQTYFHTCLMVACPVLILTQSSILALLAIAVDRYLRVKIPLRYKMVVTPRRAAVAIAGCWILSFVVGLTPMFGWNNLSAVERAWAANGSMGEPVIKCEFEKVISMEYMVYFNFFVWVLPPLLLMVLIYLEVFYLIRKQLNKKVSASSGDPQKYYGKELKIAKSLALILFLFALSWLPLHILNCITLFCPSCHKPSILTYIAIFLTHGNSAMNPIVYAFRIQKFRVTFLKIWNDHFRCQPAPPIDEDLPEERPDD
assayMethodText: Adenosine receptor activity assay (Table 1), A1 cAMP
Type: cell-based
The entries below are paired with their reported IC50.

>  <structureString>
CO[C@@H]1CCN(C(=O)c2nc(N[C@@H](C)c3cncc(Cl)c3)nc3ccsc23)C1

>  <measuredAttribute>
IC50

>  <reportedMeasurement>
> 500 nM

$$$$
>  <structureString>
CNc1cc2nc(N[C@@H](C)c3ccccn3)nc(C(=O)NCCO)c2s1

>  <measuredAttribute>
IC50

>  <reportedMeasurement>
> 500 nM

$$$$
>  <structureString>
C[C@H](Nc1nc(C(=O)N2CC[C@@H](CO)C2)c2sccc2n1)c1cncc(F)c1

>  <measuredAttribute>
IC50

>  <reportedMeasurement>
> 500 nM

$$$$
>  <structureString>
C[C@H](O)CNC(=O)c1nc(N[C@@H](C)c2cncc(Cl)c2)nc2ccsc12

>  <measuredAttribute>
IC50

>  <reportedMeasurement>
50 to 100 nM

$$$$
>  <structureString>
C[C@H](O)CNC(=O)c1nc(N[C@@H](C)c2cccnc2)nc2cc(C(F)(F)F)sc12

>  <measuredAttribute>
IC50

>  <reportedMeasurement>
> 500 nM

$$$$
>  <structureString>
Cc1cc2nc(N[C@@H](C)c3cncc(F)c3)nc(C(=O)N3CC[C@H](CO)C3)c2s1

>  <measuredAttribute>
IC50

>  <reportedMeasurement>
> 500 nM

$$$$
>  <structureString>
Cc1cc2nc(N[C@@H](C)c3cncc(F)c3)nc(C(=O)NC[C@H]3CCOC3)c2s1

>  <measuredAttribute>
IC50

>  <reportedMeasurement>
50 to 100 nM

$$$$
>  <structureString>
COC1CN(C(=O)c2nc(N[C@@H](C)c3cncc(Cl)c3)nc3ccsc23)C1

>  <measuredAttribute>
IC50

>  <reportedMeasurement>
> 500 nM

$$$$
>  <structureString>
Cc1cc2nc(N[C@@H](C)c3cncc(F)c3)nc(C(=O)N3CC(O)C3)c2s1

>  <measuredAttribute>
IC50

>  <reportedMeasurement>
50 to 100 nM

$$$$
>  <structureString>
C[C@H](Nc1nc(C(=O)N2CC[C@@H](O)C2)c2sc(N)cc2n1)c1cncc(F)c1

>  <measuredAttribute>
IC50

>  <reportedMeasurement>
> 500 nM

$$$$

IC50 for "C[C@H](Nc1nc(C(=O)NCC(F)(F)F)c2sccc2n1)c1ccccn1" ?
> 500 nM

Consider the compound "C[C@H](Nc1nc(C(=O)N2CCCC2)c2sc(C(F)(F)F)cc2n1)c1cccnc1" and give its measured IC50.
> 500 nM

Value lookup for IC50; key = "CO[C@@H]1CCN(C(=O)c2nc(N[C@@H](C)c3cncc(F)c3)nc3cc(C)sc23)C1"
> 500 nM

Query (compound): "CNc1cc2nc(N[C@@H](C)c3cncc(F)c3)nc(C(=O)N3CC[C@@H](O)C3)c2s1" ; field requested: IC50
> 500 nM

Which value of IC50 has been reported for "Cc1cc2nc(N[C@@H](C)c3cncc(F)c3)nc(C(=O)N3CC[C@@H](O)C3)c2s1" in the records?
> 500 nM

I have this compound here, "CNc1cc2nc(N[C@@H](C)c3cncc(F)c3)nc(C(=O)N3CCCC3)c2s1" , and I need its recorded IC50.
> 500 nM

###

testedTarget: adenosine A2B receptor (Homo sapiens (Human), UniProt P29275)
assayMethodText: Adenosine receptor activity assay (Table 1), A2B activity
Format: biochemical
experimentalContext: read-out: Ave A2B cAMP IC50
pIC50: −log10 of the molar value.
// reported pIC50 per item

Consider the following illustrative entries.
>  <molecule>
O=C(NCc1cccc(F)c1)c1nc(NCc2cccc(F)c2)nc2ccsc12 [Example Z74]

>  <testedTarget>
adenosine A2B receptor (Homo sapiens (Human), UniProt P29275)

>  <measuredAttribute>
pIC50

>  <reportedMeasurement>
6.30 to 7.00

$$$$
>  <molecule>
COc1ccc(CNC(=O)c2nc(N[C@@H](C)c3ccccn3)nc3ccsc23)cc1 [Example Z474]

>  <testedTarget>
adenosine A2B receptor (Homo sapiens (Human), UniProt P29275)

>  <measuredAttribute>
pIC50

>  <reportedMeasurement>
7.00 to 7.30

$$$$
>  <molecule>
Cc1csc2c(C(=O)N3CCCC3)nc(N[C@@H](C)c3ccccn3)nc12 [Example Z459]

>  <testedTarget>
adenosine A2B receptor (Homo sapiens (Human), UniProt P29275)

>  <measuredAttribute>
pIC50

>  <reportedMeasurement>
7.30 to 8.00

$$$$
>  <molecule>
C[C@H](Nc1nc(C(=O)N2CC[C@H](S(C)(=O)=O)C2)c2sccc2n1)c1ccccn1 [Example Z274]

>  <testedTarget>
adenosine A2B receptor (Homo sapiens (Human), UniProt P29275)

>  <measuredAttribute>
pIC50

>  <reportedMeasurement>
6.30 to 7.00

$$$$
>  <molecule>
CNc1cc2nc(NCc3ccccn3)nc(C(=O)N3CCCC3)c2s1 [Example Z160]

>  <testedTarget>
adenosine A2B receptor (Homo sapiens (Human), UniProt P29275)

>  <measuredAttribute>
pIC50

>  <reportedMeasurement>
7.30 to 8.00

$$$$
>  <molecule>
C[C@H](Nc1nc(C(=O)N2CCCC2)c2sc(C(F)(F)F)cc2n1)c1cccnc1 [Example Z327]

>  <testedTarget>
adenosine A2B receptor (Homo sapiens (Human), UniProt P29275)

>  <measuredAttribute>
pIC50

>  <reportedMeasurement>
> 8.00

$$$$
>  <molecule>
COCCC(=O)NC1CN(C(=O)c2nc(N[C@@H](C)c3cncc(F)c3)nc3cc(C)sc23)C1 [Example Z518]

>  <testedTarget>
adenosine A2B receptor (Homo sapiens (Human), UniProt P29275)

>  <measuredAttribute>
pIC50

>  <reportedMeasurement>
> 8.00

$$$$
>  <molecule>
C[C@H](Nc1nc(C(=O)N(C)CCc2ccc(O)cc2)c2sccc2n1)c1cncc(F)c1 [Example Z396]

>  <testedTarget>
adenosine A2B receptor (Homo sapiens (Human), UniProt P29275)

>  <measuredAttribute>
pIC50

>  <reportedMeasurement>
< 6.30

$$$$

For adenosine A2B receptor (Homo sapiens (Human), UniProt P29275), provide pIC50 of C[C@H](Nc1nc(C(=O)N2CCCC2)c2sccc2n1)c1cncc(F)c1 [Example Z134] please.
> 8.00

Query pIC50 on adenosine A2B receptor (Homo sapiens (Human), UniProt P29275) for C[C@H](Nc1nc(C(=O)N2CC(O)C2)c2sccc2n1)c1ccccn1 [Example Z100]
7.30 to 8.00

Value wanted: pIC50 (adenosine A2B receptor (Homo sapiens (Human), UniProt P29275)) of entry O=C(NCC1CCN(Cc2ccccc2)CC1)c1nc(NCc2cncc(F)c2)nc2ccsc12 [Example Z68]
7.00 to 7.30

Query for adenosine A2B receptor (Homo sapiens (Human), UniProt P29275): what pIC50 does the record show for CN(C(=O)c1nc(NCc2cncc(F)c2)nc2ccsc12)C1CCC(C)(C)C1 (centres unmarked) [Example Z22] ?
< 6.30

GET /values?readout=pIC50&system=adenosine A2B receptor (Homo sapiens (Human), UniProt P29275)&item= C[C@H](Nc1nc(C(=O)N2CC(CN)C2)c2sccc2n1)c1cncc(F)c1 [Example Z419]
7.30 to 8.00
